Test system: Cryptococcus deuterogattii CBS7750 VGII; Serotype B
Experiment: Antifungal MIC assay, extended panel
Type: cell-based
Details: extended panel, second batch; ≥80 or ≥50% inhibition
assay endpoint: MIC Cryptococcus deuterogattii CBS7750

compound | tgt | result
CC(C)C([O][Pt][Cl])C1=CCCC=CCC1 (stereo not shown) [Pt4] | Cryptococcus deuterogattii CBS7750 VGII; Serotype B | ≤0.78 to 1.56 µM
C1=CCCC=CCC1.[Cl][Pt][Cl] [Pt1] | Cryptococcus deuterogattii CBS7750 VGII; Serotype B | 1.56 to 3.13 µM
Cc1ccc2ccc3ccc(C)nc3c2n1.Cc1ccc2ccc3ccc(C)nc3c2n1.O=C([O][Eu]([O]C(=O)c1ccccc1F)[O]C(=O)c1ccccc1F)c1ccccc1F [Eu1] | Cryptococcus deuterogattii CBS7750 VGII; Serotype B | 0.024 to 0.098 µM
C1=CCCC=CCC1.[I][Pt][I] [Pt2] | Cryptococcus deuterogattii CBS7750 VGII; Serotype B | ≤0.78 to 3.13 µM
O=C([O][Ag])c1ccc(N2N=C(/C=C/C=C/c3ccccc3)CC2/C=C/c2ccccc2)cc1.O=C([O][Ag])c1ccc(N2N=C(/C=C/C=C/c3ccccc3)CC2/C=C/c2ccccc2)cc1 (racemic) [Ag2] | Cryptococcus deuterogattii CBS7750 VGII; Serotype B | 0.006 to 0.098 µM
Cc1c(C)c(-c2ccc(-c3ccccc3)cc2)[c-](C)c1C.Cc1ccccc1NC1=[NH+][Ir]([Cl])[NH]C(NS(=O)(=O)c2cccc3c(N(C)C)cccc23)=N1 [Ir3] | Cryptococcus deuterogattii CBS7750 VGII; Serotype B | 0.024 to 0.049 µM
c1cnc([S][Au][PH](c2ccco2)(c2ccco2)c2ccco2)nc1 [Au1] | Cryptococcus deuterogattii CBS7750 VGII; Serotype B | 0.024 to 0.391 µM

---

Test system: Candida tropicalis ATCC 750
Assay: Antifungal MIC assay, extended panel
Format: cell-based
Details: extended panel, second batch; ≥80 or ≥50% inhibition

molecule | tgt | MIC Candida tropicalis ATCC 750
CC(C)C([O][Pt][Cl])C1=CCCC=CCC1 (centres unmarked) | Candida tropicalis ATCC 750 | 12.5 to 25 µM
CS(=O)(=O)[O][Pd][c]1ccccc1-c1ccccc1N.CS(=O)(=O)[O][Pd][c]1ccccc1-c1ccccc1N | Candida tropicalis ATCC 750 | 0.195 to 0.391 µM
Cc1c(C)c(-c2ccc(-c3ccccc3)cc2)[c-](C)c1C.Cc1ccccc1NC1=[NH+][Ir]([Cl])[NH]C(NS(=O)(=O)c2ccc([N+](=O)[O-])cc2)=N1 | Candida tropicalis ATCC 750 | 0.098 to 0.195 µM
c1cnc([S][Au][PH](c2ccco2)(c2ccco2)c2ccco2)nc1 | Candida tropicalis ATCC 750 | 0.049 to 0.391 µM
Cc1ccc2ccc3ccc(C)nc3c2n1.Cc1ccc2ccc3ccc(C)nc3c2n1.O=C([O][Eu]([O]C(=O)c1ccccc1F)[O]C(=O)c1ccccc1F)c1ccccc1F | Candida tropicalis ATCC 750 | ≤0.006 to 0.049 µM

---

Entries annotated with measured MIC
Test system: Candida tropicalis ATCC 750
Test: Antifungal MIC assay, extended panel
Assay type: cell-based
Details: Candida tropicalis, ATCC750; comparator antifungals; MIC = ≥80% inhibition
assay endpoint: MIC (mg/L)

molecule | tgt | measured number
CC[C@@H]([C@H](C)O)n1ncn(-c2ccc(N3CCN(c4ccc(OC[C@@H]5CO[C@@](Cn6cncn6)(c6ccc(F)cc6F)C5)cc4)CC3)cc2)c1=O [Posaconazole, reference compound] | Candida tropicalis ATCC 750 | 0.125
CCC(C)n1ncn(-c2ccc(N3CCN(c4ccc(OCC5COC(Cn6cncn6)(c6ccc(Cl)cc6Cl)O5)cc4)CC3)cc2)c1=O (stereo not drawn) [Itraconazole, reference compound] | Candida tropicalis ATCC 750 | 2
CC[C@H](C)C[C@H](C)CCCCCCCCC(=O)N[C@H]1C[C@@H](O)[C@@H](NCCN)NC(=O)[C@@H]2[C@@H](O)CCN2C(=O)[C@H]([C@H](O)CCN)NC(=O)[C@H]([C@H](O)[C@@H](O)c2ccc(O)cc2)NC(=O)[C@@H]2C[C@@H](O)CN2C(=O)[C@H]([C@@H](C)O)NC1=O [Caspofungin, reference compound] | Candida tropicalis ATCC 750 | 1.56

---

Tested on: HEK-293 human embryonic kidney cells ATCC CRL-1573
Conditions: initial CO-ADD screening, 20 h

compound | tgt | HEK CC50
Cc1cccc(C2(c3ccccc3)[C]([Au-][Cl])=C(C(C)(C)C)c3cccc(C)[n+]32)n1 (stereo not drawn) | HEK-293 human embryonic kidney cells ATCC CRL-1573 | > 32 µg/mL
Cc1cccc2[n+]1[Au-]([Cl])([Cl])[n+]1c(C)cccc1C(c1ccccc1)=C=C2c1ccccc1.[Cl-] | HEK-293 human embryonic kidney cells ATCC CRL-1573 | > 32 µg/mL
Cc1c(C)c(-c2ccc(-c3ccccc3)cc2)[c-](C)c1C.Cc1ccccc1NC1=[NH+][Ir]([Cl])[NH]C(NS(=O)(=O)c2ccc([N+](=O)[O-])cc2)=N1 | HEK-293 human embryonic kidney cells ATCC CRL-1573 | >32 µg/mL
Cc1ccnc([S][Au][PH](c2ccco2)(c2ccco2)c2ccco2)n1 | HEK-293 human embryonic kidney cells ATCC CRL-1573 | 1.38 µg/mL
CC(=NN=C(N)[S-])C(C)=NN=C(N)[S-].O=[N+]([O-])[O-].[Co+3].c1c[nH]cn1.c1c[nH]cn1 | HEK-293 human embryonic kidney cells ATCC CRL-1573 | >32 µg/mL
Cc1cccc2[n+]1[Pd-2]([Cl])([Cl])[n+]1c(C)cccc1C(c1ccccc1)=C=C2c1ccccc1 | HEK-293 human embryonic kidney cells ATCC CRL-1573 | 1.0 µg/mL

---

Entries annotated with measured RBC HC10
System: human red blood cells
Assay type: cell-based
Settings: initial CO-ADD screening, 1 h; 10% hemolysis
assay endpoint: RBC HC10

molecule | tgt | assay endpoint | result
Cc1c(C)c(C)[c-](C)c1C.Cc1c(C)c(C)[c-](C)c1C.[Cl-].[Cl-].[Cl-].[Cl-].[Rh+3].[Rh+3] [Rh1] | human red blood cells | RBC HC10 | >32 µg/mL
O=C([O][Ag])c1ccc(N2N=C(/C=C/C=C/c3ccccc3)CC2/C=C/c2ccccc2)cc1.O=C([O][Ag])c1ccc(N2N=C(/C=C/C=C/c3ccccc3)CC2/C=C/c2ccccc2)cc1 (racemic) [Ag2] | human red blood cells | RBC HC10 | >32 µg/mL
Cc1cccc(C(=C=C(c2cccc(C)n2)C(C)(C)C)c2ccccc2)n1.[Cl][Pt]([Cl])([Cl])[Cl] [HM_C5] | human red blood cells | RBC HC10 | > 32 µg/mL
O=C([O][Ag])c1ccc(N2N=C(/C=C/c3ccccc3)CC2c2ccccc2)cc1.O=C([O][Ag])c1ccc(N2N=C(/C=C/c3ccccc3)CC2c2ccccc2)cc1 (racemic) [Ag3] | human red blood cells | RBC HC10 | > 32 µg/mL
C1=CCCC=CCC1.[I][Pt][I] [Pt2] | human red blood cells | RBC HC10 | >20 µM
O=C([O][Eu]([O]C(=O)c1ccccc1F)[O]C(=O)c1ccccc1F)c1ccccc1F.c1ccc(-c2ccnc3c2ccc2c(-c4ccccc4)ccnc23)cc1 [Eu-S3] | human red blood cells | RBC HC10 | > 20 µM
CC(=NN=C(N)[S-])C(C)=NN=C(N)[S-].O=[N+]([O-])[O-].[Co+3].c1c[nH]cn1.c1c[nH]cn1 [Co1] | human red blood cells | RBC HC10 | >32 µg/mL

---

System: Candida albicans ATCC 90028 NCCLS11
Test: Antifungal MIC assay
Type: cell-based
Settings: Candida albicans, ATCC90028; comparator antifungals; ≥80% inhibition; converted with MW of Table S12; read-out: MIC* Candida albicans ATCC 90028
Entries annotated with measured MIC

compound | MIC
CC[C@H](C)C[C@H](C)CCCCCCCCC(=O)N[C@H]1C[C@@H](O)[C@@H](NCCN)NC(=O)[C@@H]2[C@@H](O)CCN2C(=O)[C@H]([C@H](O)CCN)NC(=O)[C@H]([C@H](O)[C@@H](O)c2ccc(O)cc2)NC(=O)[C@@H]2C[C@@H](O)CN2C(=O)[C@H]([C@@H](C)O)NC1=O [Caspofungin, reference compound] | 0.357 to 1.43 µM
OC(Cn1cncn1)(Cn1cncn1)c1ccc(F)cc1F [Fluconazole, reference compound] | 0.018 µM
Nc1nc(=O)[nH]cc1F [5-Fluorocytosine, reference compound] | ≤ 0.012 µM
C[C@@H]1[C@H](O)[C@@H](C)/C=C/C=C/C=C/C=C/C=C/C=C/C=C/[C@H](O[C@@H]2O[C@H](C)[C@@H](O)[C@H](N)[C@@H]2O)C[C@@H]2O[C@](O)(C[C@@H](O)C[C@@H](O)[C@H](O)CC[C@@H](O)C[C@@H](O)CC(=O)O[C@H]1C)C[C@H](O)[C@H]2C(=O)O [Amphotericin B, reference compound] | 0.192 to 1.53 µM
